- Test system: Fibroblast
- TEST_DETAILS: Multiplex assay against human fibroblast
- Format: toxicity, cell-based
- CONDITION_DESCRIPTION: 12 h, 1 µM, compound concentration 1 uM, replicate 2
Classification field: true (1) = Population Membrane Permeable-Phenotype (%) at or over 10%; false (0) = Population Membrane Permeable-Phenotype (%) under 10%.

CCc1cccc(CC)c1NC(=O)c1nn(C)c2c1CCc1cnc(Nc3ccc(C(=O)NC4CCN(C)CC4)cc3OC(F)(F)F)nc1-2 : false (0)

Would you say Cc1ccc2nc(NCCN)c3ncc(C)n3c2c1.O=C(O)C(F)(F)F.O=C(O)C(F)(F)F shows Population Membrane Permeable-Phenotype (%) at minimum 10%?
true (1)

Would you say CCOc1cc2ncc(C#N)c(Nc3ccc(OCc4ccccn4)c(Cl)c3)c2cc1NC(=O)/C=C/CN(C)C [NERATINIB] shows Population Membrane Permeable-Phenotype (%) at minimum 10%?
false (0)

Would you say Cc1ccc(C(=O)Nc2cccc(C(F)(F)F)c2)cc1Nc1nc(-c2cccnc2)nc2c1cnn2C shows Population Membrane Permeable-Phenotype (%) at minimum 10%?
false (0)

Would you say O=C(Nc1ccc(-n2nc(-c3cccnc3)cc2C(F)(F)F)cn1)c1ccc(-c2ccccc2)c(F)c1 [BI 2049] shows Population Membrane Permeable-Phenotype (%) at minimum 10%?
false (0)

Would you say COc1ccc(S(=O)(=O)N(CCO)c2ccccc2CN(C)C/C=C/c2ccc(Cl)cc2)cc1.O=P(O)(O)O shows Population Membrane Permeable-Phenotype (%) at minimum 10%?
true (1)

====

- Tested on: HEK-293T
- TEST_DETAILS: Multiplex assay against HEK293T
- Type: toxicity, cell-based
- CONDITION_DESCRIPTION: human, 48 h, 1 µM, compound concentration 1 uM, replicate 2
READOUT_LABEL: Population Hoechst High Intensity Objects (%)
Just the number please, in %, no unit attached.

Record excerpt, results attached:
CCOC(=O)c1c(C)[nH]c2ccc3c(c12)CN1CCc2cc(OC)ccc2C1O3 (configuration not stated) : 4
Cl.O=c1c2cccn2c2ccccc2n1CCCN1CCC(c2ccc(Cl)cc2)CC1 : 5
CN(C)C(=O)C(CCN1CCC(O)(c2ccc(Cl)cc2)CC1)(c1ccccc1)c1ccccc1.Cl [LOPERAMIDE HYDROCHLORIDE] : 3

Indicate the recorded Population Hoechst High Intensity Objects (%) value for this compound: O=C(Nc1ccc(Cl)cc1)Nc1cccc(-c2cccc(N3CCCC3)n2)c1
2

Indicate the recorded Population Hoechst High Intensity Objects (%) value for this compound: Cc1cc(C)c(S(=O)(=O)N(Cc2ccc(-c3cccc(S(C)(=O)=O)c3)cc2)Cc2ccc(C(F)(F)F)o2)c(C)c1
2

Indicate the recorded Population Hoechst High Intensity Objects (%) value for this compound: Cl.Oc1ccc2c3c1O[C@H]1c4[nH]c5c(c4C[C@@]4(O)[C@@H](C2)N(CC2CC2)CC[C@]314)C[C@@]1(O)[C@H]2Cc3ccc(O)c4c3[C@@]1(CCN2CC1CC1)[C@H]5O4
3

Indicate the recorded Population Hoechst High Intensity Objects (%) value for this compound: CCOc1cc(C(=O)N2CCC(N3CCN(C)CC3)CC2)ccc1Nc1ncc2c(n1)N(C1CCCC1)c1ccccc1C(=O)N2C
5

====

- Test system: HEK-293T
- TEST_DETAILS: Incucyte cell viability with HEK293T; note: filed as whole numbers so only -1 and 0 and 1 occur
- Format: toxicity, cell-based
- CONDITION_DESCRIPTION: human, 0 h, 10 µM, compound concentration 10 uM, replicate number 1, timepoint 0 hours
READOUT_LABEL: Growth Rate
In your answer, state the number alone without any accompanying words.

c1ccc(Nc2nc3c(s2)CCCc2[nH]ncc2-3)nc1 : 1

Indicate the recorded Growth Rate value for this compound: CCOc1cc2ncc(C#N)c(Nc3ccc(OCc4ccccn4)c(Cl)c3)c2cc1NC(=O)/C=C/CN(C)C
0

Indicate the recorded Growth Rate value for this compound: Cc1cn(-c2cc(NC(=O)c3ccc(C)c(Nc4nccc(-c5cccnc5)n4)c3)cc(C(F)(F)F)c2)cn1
0

Indicate the recorded Growth Rate value for this compound: CC1(C)C(=O)C(C)(C)c2cc(C(=O)Nc3ccc(C(=O)O)cc3)ccc21
0

====

The entries below are paired with their reported Population Tubulin-Different-Phenotype (%).
- System: HEK-293T
- TEST_DETAILS: Multiplex assay against HEK293T;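 for Population Tubulin-Different-Phenotype (%): share of the cells with healthy nuclei that show this phenotype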
- Format: toxicity, cell-based
- CONDITION_DESCRIPTION: human, 24 h, 10 µM, compound concentration 10 uM, replicate 1
Just the number please, in %, no unit attached.

For HEK-293T, give Population Tubulin-Different-Phenotype (%) of the listed compound: CN1CCN(C(=O)C(C)(C)c2ccc(C(=O)Nc3cn4cc(-c5cc(C(C)(C)C)cc(C(C)(C)C)c5)ccc4n3)cc2)CC1
56

For HEK-293T, give Population Tubulin-Different-Phenotype (%) of the listed compound: COc1cc2ncnc(Nc3ccc(F)c(Cl)c3)c2cc1NC(=O)/C=C/CN1CCCCC1 [DACOMITINIB ANHYDROUS]
10

For HEK-293T, give Population Tubulin-Different-Phenotype (%) of the listed compound: O=C(Nc1cccnn1)N1CCC(=Cc2cccc(Oc3ccc(C(F)(F)F)cn3)c2)CC1
5

For HEK-293T, give Population Tubulin-Different-Phenotype (%) of the listed compound: COc1cccc2cc(-c3nc([C@H]4CC[C@H](C(=O)O)CC4)n4ncnc(N)c34)[nH]c12
6

For HEK-293T, give Population Tubulin-Different-Phenotype (%) of the listed compound: CCN1CCN(Cc2ccc(Nc3ncc(F)c(-c4cc(F)c5nc(C)n(C(C)C)c5c4)n3)nc2)CC1.CS(=O)(=O)O
0

For HEK-293T, give Population Tubulin-Different-Phenotype (%) of the listed compound: O=C(Nc1ccc(Cl)cc1)Nc1cccc(-c2cccc(N3CCCC3)n2)c1
66

For HEK-293T, give Population Tubulin-Different-Phenotype (%) of the listed compound: COc1cc(N2CCN(C)CC2)ccc1Nc1ncc2c(n1)N(C)c1ccccc1C(=O)N2C
93

For HEK-293T, give Population Tubulin-Different-Phenotype (%) of the listed compound: Cl.O=c1c2cccn2c2ccccc2n1CCCN1CCC(c2ccc(Cl)cc2)CC1
88

For HEK-293T, give Population Tubulin-Different-Phenotype (%) of the listed compound: CN1C2CCC1CC(OC(c1ccc(F)cc1)c1ccc(F)cc1)C2.Cl (stereo not drawn)
96

For HEK-293T, give Population Tubulin-Different-Phenotype (%) of the listed compound: CCOC(=O)c1c(C)[nH]c2ccc3c(c12)CN1CCc2cc(OC)ccc2C1O3 (stereo not drawn)
94

For HEK-293T, give Population Tubulin-Different-Phenotype (%) of the listed compound: O=C(Nc1ccc(-n2nc(-c3cccnc3)cc2C(F)(F)F)cn1)c1ccc(-c2ccccc2)c(F)c1
53

For HEK-293T, give Population Tubulin-Different-Phenotype (%) of the listed compound: COc1ccc(-c2ccc3c(N4CCOCC4)nc(N4C[C@@H](C)O[C@@H](C)C4)nc3n2)cc1CO
17

For HEK-293T, give Population Tubulin-Different-Phenotype (%) of the listed compound: COc1ccc(S(=O)(=O)N(CCO)c2ccccc2CN(C)C/C=C/c2ccc(Cl)cc2)cc1.O=P(O)(O)O
31

For HEK-293T, give Population Tubulin-Different-Phenotype (%) of the listed compound: CCn1cc(-c2ccnc3[nH]c(-c4cccc(CN(C)C)c4)cc23)c(-c2ccc(NC(=O)N(C)C)cc2)n1
89

For HEK-293T, give Population Tubulin-Different-Phenotype (%) of the listed compound: CCN1CCN(c2ccc(Nc3cc(N(C)C(=O)Nc4c(Cl)c(OC)cc(OC)c4Cl)ncn3)cc2)CC1
24

For HEK-293T, give Population Tubulin-Different-Phenotype (%) of the listed compound: COC(=N)c1nc2ccc3ncnc(Nc4ccc(OC)cc4F)c3c2s1
8

For HEK-293T, give Population Tubulin-Different-Phenotype (%) of the listed compound: O=C(Cc1ccc(-c2ccc(OCCN3CCOCC3)cc2)cn1)NCc1ccccc1
17

For HEK-293T, give Population Tubulin-Different-Phenotype (%) of the listed compound: CNC(=O)c1ccc(Nc2nc(OC3CCCC3)c3c(-c4ccc5nc(C)oc5c4)c[nH]c3n2)c(OC)c1
81

====

The entries below are paired with their reported Population Normal (%).
- System: HEK-293T
- TEST_DETAILS: Multiplex assay against HEK293T
- Assay type: toxicity, cell-based
- CONDITION_DESCRIPTION: human, 24 h, 1 µM, compound concentration 1 uM, replicate 2
Just the number please, in %, no unit attached.

Record excerpt, results attached:
Cc1ccc(C(=O)Nc2cccc(C(F)(F)F)c2)cc1Nc1nc(-c2cccnc2)nc2c1cnn2C : 93
CCCS(=O)(=O)Nc1ccc(F)c(C(=O)c2c[nH]c3ncc(Cl)cc23)c1F : 94
Cc1cc(C)c(S(=O)(=O)N(Cc2ccc(-c3cccc(S(C)(=O)=O)c3)cc2)Cc2ccc(C(F)(F)F)o2)c(C)c1 : 97
CCOC(=O)c1c(C)[nH]c2ccc3c(c12)CN1CCc2cc(OC)ccc2C1O3 (stereo unspecified) : 96
CCCn1c(=O)c2[nH]c(-c3cnn(Cc4cccc(C(F)(F)F)c4)c3)nc2n(CC)c1=O : 98
CCN1CCN(c2ccc(Nc3cc(N(C)C(=O)Nc4c(Cl)c(OC)cc(OC)c4Cl)ncn3)cc2)CC1 : 94

For HEK-293T, give Population Normal (%) of the listed compound: Cl.Oc1ccc2c3c1O[C@H]1c4[nH]c5c(c4C[C@@]4(O)[C@@H](C2)N(CC2CC2)CC[C@]314)C[C@@]1(O)[C@H]2Cc3ccc(O)c4c3[C@@]1(CCN2CC1CC1)[C@H]5O4
95

For HEK-293T, give Population Normal (%) of the listed compound: COC(=N)c1nc2ccc3ncnc(Nc4ccc(OC)cc4F)c3c2s1
94

For HEK-293T, give Population Normal (%) of the listed compound: COc1cc2ncnc(Nc3ccc(F)c(Cl)c3)c2cc1NC(=O)/C=C/CN1CCCCC1 [DACOMITINIB ANHYDROUS]
96

For HEK-293T, give Population Normal (%) of the listed compound: CCOc1cc2ncc(C#N)c(Nc3ccc(OCc4ccccn4)c(Cl)c3)c2cc1NC(=O)/C=C/CN(C)C
83

For HEK-293T, give Population Normal (%) of the listed compound: CCN1CCN(Cc2ccc(Nc3ncc(F)c(-c4cc(F)c5nc(C)n(C(C)C)c5c4)n3)nc2)CC1.CS(=O)(=O)O
94

For HEK-293T, give Population Normal (%) of the listed compound: S=C(NCCCc1c[nH]cn1)NCCCN(Cc1ccc(Cl)c(Cl)c1)c1ccc(Br)cn1
93

For HEK-293T, give Population Normal (%) of the listed compound: CN1CCN(C(=O)C(C)(C)c2ccc(C(=O)Nc3cn4cc(-c5cc(C(C)(C)C)cc(C(C)(C)C)c5)ccc4n3)cc2)CC1
95

For HEK-293T, give Population Normal (%) of the listed compound: CCn1c(=O)c(-c2ccc(-c3cncs3)cc2Cl)cc2cnc(Nc3ccc(N4CCN(C)CC4)cc3)nc21
98

For HEK-293T, give Population Normal (%) of the listed compound: COc1cc(N2CCN(C)CC2)ccc1Nc1ncc2c(n1)N(C)c1ccccc1C(=O)N2C
97

For HEK-293T, give Population Normal (%) of the listed compound: CN(C)C(=O)C(CCN1CCC(O)(c2ccc(Cl)cc2)CC1)(c1ccccc1)c1ccccc1.Cl [LOPERAMIDE HYDROCHLORIDE]
99
